TARGET_OR_TEST_SYSTEM: human IDO (IDO1-expressing HEK293 cells) (Homo sapiens)
Construct: expressed in transfected cells
Sequence (P14902 whole entry): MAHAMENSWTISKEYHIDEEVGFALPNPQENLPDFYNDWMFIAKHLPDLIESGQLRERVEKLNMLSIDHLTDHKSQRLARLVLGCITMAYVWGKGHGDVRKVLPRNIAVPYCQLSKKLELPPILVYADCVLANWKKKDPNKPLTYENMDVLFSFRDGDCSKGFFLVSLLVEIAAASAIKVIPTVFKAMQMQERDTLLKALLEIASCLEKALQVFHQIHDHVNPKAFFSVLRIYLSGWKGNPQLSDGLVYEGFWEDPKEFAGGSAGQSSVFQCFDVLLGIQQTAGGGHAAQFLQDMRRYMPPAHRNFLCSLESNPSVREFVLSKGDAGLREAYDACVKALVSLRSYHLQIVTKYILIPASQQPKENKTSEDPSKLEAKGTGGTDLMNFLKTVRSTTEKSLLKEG
PROTOCOL_SUMMARY: Cell based kynurenine assay, IDO1-expressing HEK293 cell clones
MEASUREMENT_CONTEXT: IDO1-expressing HEK293 cells, 24 hours incubation; geometric mean; read-out: HEK293 IDO1 Kynurenine GMean IC50 (μM) (Cellular Assay)
Experimental: Determine Inhibitor Activity Against IDO or TDO in Cell Based Kynurenine Assay IDO1-expressing or TDO-expressing HEK293 cell clones are generated upon stable transfection of plasmids expressing human IDO or human TDO under the control of CMV promoter. […] Cells were seeded in a 96 well plate in 50 μL of culture media at a density of 2.5×10^4 per well. […] After 24 hours of incubation, the supernatant was transferred to a 384 well reaction plate and the kynurenine level determined. […]
OBSERVABLE: IC50

Here are 2 compounds together with their reported answers.
OC(c1cc(Cl)cc2cn[nH]c12)C1(C(F)(F)F)CC1 (centres unmarked) :: 0.0001 to 10 µM
O=S1(=O)CCC(O)(c2cc(Cl)cc3cn[nH]c23)CC1 :: > 10 µM

Prompt line: Requested field: IC50. Item: CS(=O)(=O)N1CCC(C2(C(O)c3cc(Cl)cc4cn[nH]c34)CC2)CC1 (centres unmarked)
Response line: 0.0001 to 10 µM

Prompt line: Requested field: IC50. Item: CC1(C(O)c2cc(Cl)cc3cn[nH]c23)COC1 (centres unmarked)
Response line: 0.0001 to 10 µM

Prompt line: Requested field: IC50. Item: CCC(CC)(CCC#N)C(O)c1cc(Cl)cc2cn[nH]c12 (centres unmarked)
Response line: 0.0001 to 10 µM

Prompt line: Requested field: IC50. Item: OC1(c2cc(Cl)cc3[nH]ncc23)CC2(CCOCC2)C1
Response line: 0.0001 to 10 µM

Prompt line: Requested field: IC50. Item: OC(CCc1ccccc1)c1cccc2cncn12 (centres unmarked)
Response line: > 10 µM

Prompt line: Requested field: IC50. Item: OC(CCC1CCCCC1)c1cc(Cl)cc2cn[nH]c12 (centres unmarked)
Response line: 0.0001 to 10 µM

Prompt line: Requested field: IC50. Item: OC1(c2cc(Cl)cc3cn[nH]c23)CC2(CCOCC2)C1
Response line: 0.0001 to 10 µM

Prompt line: Requested field: IC50. Item: OC1(c2cc(Cl)cc3cn[nH]c23)CCC1
Response line: > 10 µM

Prompt line: Requested field: IC50. Item: CC(C)(C1CCN(C(=O)NCC(F)(F)F)CC1)C(O)c1cc(Cl)cc2cn[nH]c12 (centres unmarked)
Response line: 0.0001 to 10 µM

Prompt line: Requested field: IC50. Item: OCC1CCC(C(O)c2cc(Cl)cc3cn[nH]c23)CC1 (centres unmarked)
Response line: 0.0001 to 10 µM

Prompt line: Requested field: IC50. Item: OC(c1cc(Cl)cc2cn[nH]c12)C12CCC(F)(CC1)CC2 (centres unmarked)
Response line: 0.0001 to 10 µM

Prompt line: Requested field: IC50. Item: CC(C)(CCC#N)C(O)c1cc(Cl)cc2cn[nH]c12 (centres unmarked)
Response line: 0.0001 to 10 µM

Prompt line: Requested field: IC50. Item: CC(C)(C(O)c1cc(Cl)cc2cn[nH]c12)C(F)(F)F (centres unmarked)
Response line: 0.0001 to 10 µM

Prompt line: Requested field: IC50. Item: CC(C)(C)OC(=O)N1CCC(C(C)(C)[C@@H](O)c2c(F)c(Cl)cc3cn[nH]c23)CC1
Response line: > 10 µM

Prompt line: Requested field: IC50. Item: OC(c1c(F)c(Cl)cc2cn[nH]c12)C12CCC(F)(CC1)CC2 (centres unmarked)
Response line: 0.0001 to 10 µM
